- test-summary: gradient 5% acetonitrile 3 min, to 50% in 2 min, to 85% in 15 min, held 3 min, 100 µL/min
- run-conditions: column: Zorbax Extend-C18 2.1 x 50 mm; eluents: water / acetonitrile, 0.1% formic acid
Threshold 800 s. RP-LC retention time below it: Condition met. RP-LC retention time at it or above: Condition not met.

1) CCN(CC)S(=O)(=O)c1ccc2c(c1)N(CC(=O)N1CCN(C)CC1)C(=O)C1CCCCN21 (stereo not drawn): Condition met
2) CCN1CCCn2nc(C3CCN(C(=O)COc4cccc(Cl)c4)CC3)cc2C1=O: Condition met
3) Cc1nn(-c2cc(N3CCOCC3)ncn2)c(C)c1CCC(=O)N1CCN(c2ccccn2)CC1: Condition met
4) CCCN1C(=O)c2n[nH]c(-c3ccco3)c2C1c1ccc(O)c(OC)c1 (stereo not drawn): Condition met
5) COc1ccc(OC)c(S(=O)(=O)N2CCCC(C(=O)NC(C)C)C2)c1 (stereo not drawn): Condition met
6) Cc1ccc(-c2noc(C3CC3)n2)cc1S(=O)(=O)N1CCC(C(=O)NC2CC2)CC1: Condition not met
7) O=C(CCCN1C(=O)c2cccc3cccc(c23)C1=O)N1CCN(c2ncccn2)CC1: Condition met
8) O=C(NCc1cc(-c2ccc3c(c2)OCO3)on1)c1cc(=O)c2ccccc2o1: Condition met
9) O=C(Cc1ccccc1)NCC(=O)NC(C(=O)N1CCCc2ccccc21)c1ccccc1 (stereo not drawn): Condition not met
10) Cc1ccc(-n2cc(C3=CCN(CC(=O)NC4CCN(Cc5ccccc5)CC4)CC3)cn2)cc1: Condition met
11) N#Cc1ccc(C(=O)NC2CCN(c3ccccc3)C2=O)cc1 (stereo not drawn): Condition met
12) O=C(Cn1cc(-c2nnco2)c2ccccc21)NCc1ccccc1F: Condition met
13) O=C(Nc1nc2c(s1)CN(S(=O)(=O)C1CC1)CC2)c1cnn(-c2ccccc2)n1: Condition not met
14) COc1ccc(Cl)cc1S(=O)(=O)N1CCC(C(N)=O)CC1: Condition met
15) COCC(C)NC(=O)c1cc2c(s1)N(CC(C)C)CCCC2 (stereo not drawn): Condition not met
16) O=C(Nc1nc2c(s1)CN(C(=O)C1CC=CCC1)CC2)c1cccs1 (stereo not drawn): Condition met
17) Cc1cc(C)c(S(=O)(=O)Nc2ccc(CC(=O)N3CCC(O)CC3)cc2)c(C)c1: Condition met

###

- test-summary: gradient 5% acetonitrile 3 min, to 50% in 2 min, to 85% in 15 min, held 3 min, 100 µL/min
- run-conditions: column: Zorbax Extend-C18 2.1 x 50 mm; eluents: water / acetonitrile, 0.1% formic acid
Item-by-item account of RP-LC retention time
attribute-measured: RP-LC retention time (s)

1. Cc1ccc(C2NC(=O)N(CC(=O)Nc3ccc(Br)cc3F)C3=C2C(=O)OC3)cc1 (stereo not drawn): 861
2. CCCn1cc(C2=CCN(S(=O)(=O)c3ccc(NC(C)=O)cc3)CC2)c2cccnc21: 865
3. COc1ccc(S(=O)(=O)N2CCN(c3cc(-n4ccnc4)nc(C)n3)CC2)cc1Cl: 664
4. CN1Cc2ccccc2-n2ccnc2C12CCN(C(=O)c1cccc(C(F)(F)F)c1)CC2: 594
5. c1cc(-c2nc(-c3ccc4c(c3)ncn4CCN3CCCCC3)no2)co1: 598
6. COCCCNC(=O)c1ccc(-n2nc(C)c3c2CC(C)(C)CC3=O)cc1: 711
7. O=C(Cn1c(=O)cc(-c2nc(C3CC3)no2)c2ccccc21)NCc1ccccc1F: 902
8. CCOC(=O)c1c(S(=O)(=O)N2CCC(C(=O)N3CCCC3)CC2)c(C)n(C)c1C: 706
9. CN(C)C/C=C/C(=O)Nc1cc2c(Nc3ccc(F)c(Cl)c3)ncnc2cc1O[C@H]1CCOC1: 632
10. Cc1nc(C)c(-c2ccc(SCC(=O)N3CCCc4ccccc43)nn2)s1: 779
11. Cc1oc(-c2cccc(Cl)c2)nc1Cn1c(=O)n(C(C)C)c(=O)c2ccccc21: 1360
12. Cn1nc(C(=O)N2CCCC(C(=O)NC3CC3)C2)c2c1CCN(C(=O)CCc1ccccc1)C2 (stereo not drawn): 671
13. CC(C)n1cnc2cc(CNC(=O)c3cnccn3)ccc21: 572

###

Form field: RP-LC retention time (one value per entry).
- test-summary: gradient 5% acetonitrile 3 min, to 50% in 2 min, to 85% in 15 min, held 3 min, 100 µL/min
- run-conditions: column: Zorbax Extend-C18 2.1 x 50 mm; eluents: water / acetonitrile, 0.1% formic acid
attribute-measured: RP-LC retention time (s)

1) Cc1ccn2cc(-c3cccc(S(=O)(=O)N4CC(C)CC(C)C4)c3)nc2c1 (stereo not drawn): 784
2) CCCN(C)c1nccn2c(=O)n(CC(=O)Nc3ccc(F)cc3)nc12: 806
3) O=C(NC1CC1)c1ccc(OCC2CCCN2C(=O)Cc2ccc(F)cc2)cc1 (stereo not drawn): 813

###

- test-summary: gradient 5% acetonitrile 3 min, to 50% in 2 min, to 85% in 15 min, held 3 min, 100 µL/min
- run-conditions: column: Zorbax Extend-C18 2.1 x 50 mm; eluents: water / acetonitrile, 0.1% formic acid
attribute-measured: RP-LC retention time

1. CCCNC(=O)Cc1c(C)nc2nc(-c3ccc(C(C)(C)C)cc3)nn2c1C: 920 s
2. Cc1c(Cl)cccc1NC(=O)CN1C(=O)CCCc2cc(S(=O)(=O)N3CCCC3)ccc21: 879 s
3. CCn1c(=O)c(C)nc2cc(-c3noc(-c4ccc(OC)cc4)n3)ccc21: 942 s
4. Cc1cc2nn(CC(=O)NCc3ccccc3)c(=O)n2c(Nc2ccccc2C)n1: 990 s
5. CCSc1nc2ccc(NS(=O)(=O)c3cc(C)ccc3C)cc2s1: 1070 s
6. CN1CCCCCC(O)c2cc(C(=O)NC3CCCCC3)ccc21 (stereo not drawn): 654 s
7. CCCNC(=O)c1cn(-c2ccc(-c3nc(CC)no3)cn2)cn1: 777 s
8. Cc1cc(NC(=O)NC(=O)c2ccccc2NC(=O)CN)ccc1Oc1ncc(Br)cn1: 653 s
9. COC(=O)c1cccc(Nc2c(-c3ccc(OC)cc3)nc3cnccn23)c1: 810 s
10. Cc1ccc(NC(=O)Cn2nc(N(C)C)c3ccccc3c2=O)cc1Cl: 958 s
11. Cc1nc(-c2csc(S(=O)(=O)N3CCCC(C(=O)Nc4ccc(C)c(Cl)c4)C3)c2)no1 (stereo not drawn): 940 s
12. COc1cc(OC)cc(C(=O)N2CCN(c3nc4ccccc4cc3-c3noc(C)n3)CC2)c1: 971 s
13. O=S(=O)(c1ccc(F)cc1Cl)N1CCCn2nc(-c3cccnc3)cc2C1: 687 s
14. CC(C)c1nnc2n1CCN(C(=O)CCC1CCCC1)C2: 714 s
15. CCc1ccc(CNC(=O)c2cc3n(n2)CC(C)(C(=O)NCc2ccccc2)N(C)C3=O)cc1 (stereo not drawn): 832 s
16. CC(=O)N1CCc2cc(N3CC(C(=O)NCC4CCCO4)CC3=O)ccc21 (stereo not drawn): 590 s
17. CC(C)C(=O)N1CCc2cc(C(N)=O)ccc21: 637 s
18. CNC(=O)N1CCc2c(c(-c3nc(-c4cccc(F)c4)no3)nn2C)C1: 738 s

###

- test-summary: gradient 5% acetonitrile 3 min, to 50% in 2 min, to 85% in 15 min, held 3 min, 100 µL/min
- run-conditions: column: Zorbax Extend-C18 2.1 x 50 mm; eluents: water / acetonitrile, 0.1% formic acid
The reader will find reported RP-LC retention time values listed item by item below.
attribute-measured: RP-LC retention time (s)

1. COCCCNC(=O)CCCn1c2ccccc2c2cnn(C)c(=O)c21: 688
2. CC(C)c1noc(-c2ccnc(-n3cnc(C(=O)NCC4CC4)c3)c2)n1: 879
3. Cc1ccc2c(Nc3ccc(C)c(C)c3)c(C(=O)N3CCC(C)CC3)cnc2n1: 681
4. COc1ccc(NC(=O)C2CCc3nc(N4CCOCC4)ncc3C2)c(C)c1 (stereo not drawn): 702
5. CN(c1ccccc1CNc1nc(Nc2ccc3c(c2)CC(=O)N3)ncc1C(F)(F)F)S(C)(=O)=O: 713
6. COCc1cc(=O)n(CC(=O)NCc2ccccc2)c(N)n1: 595
7. CCc1ccccc1NC(=O)Cn1c(CC)nc2c(c1=O)CN(Cc1ccccc1)CC2: 666
8. COC1CCOC2(CCN(C(=O)c3ccoc3)CC2)C1 (stereo not drawn): 652
9. COC(=O)c1cccc(C(=O)Nc2cc(C)cc(C)c2)n1: 931
10. CC[C@@]1(O)C(=O)OCc2c1cc1n(c2=O)Cc2cc3c(NC(=O)CN)cccc3nc2-1: 626
11. Clc1ccc(OCCSc2nnc(-c3ccc4c(c3)OCO4)o2)cc1: 1130
12. CCOC(=O)c1c(S(=O)(=O)N2CCC(C(=O)Nc3ccccc3F)CC2)c(C)n(C)c1C: 851
13. CCCc1cc(N2CCN(C(=O)C(C)Oc3ccccc3)CC2)nc2nnc(C)n12 (stereo not drawn): 656
14. COc1ccccc1CNC(=O)CN1CCN(Cc2ccccc2F)C1=O: 715
15. Cc1cc(Cl)ccc1OCCCC(=O)NO: 801
16. Cc1nc(N2CCCC(C(=O)Nc3ccc4c(c3)OCCO4)C2)c2c(C)c(C)oc2n1 (stereo not drawn): 846
17. CC1(C(=O)NC2CCCC2)CN(S(=O)(=O)c2ccccc2)CC(=O)N1c1ccc(Cl)cc1 (stereo not drawn): 950
18. O=C(CCc1ccccc1)NC1(c2nc(-c3ccncc3)no2)CCCCC1: 902
